- Test system: KMS-12-BM (Plasma Cell Myeloma)
- Run description: combination Emax (second highest fraction inhibited in the dose matrix, 72 h); higher = more inhibition; extreme values may be limits of the assay
Label met when combination Emax >= 0.9; otherwise not met.

[in] For this compound, is measured combination Emax 0.9 or higher? COc1nnc2ccc(N3CCC(c4ccc(OCCN5CCN(C)C(=O)[C@H]5C)cc4)CC3)nn12 [AZD5153] + CC1(C)CCC(CN2CCN(c3ccc(C(=O)NS(=O)(=O)c4ccc(NCC5CCOCC5)c([N+](=O)[O-])c4)c(Oc4cnc5[nH]ccc5c4)c3)CC2)=C(c2ccc(Cl)cc2)C1 [Venetoclax] (first compound max 1 µM, 7x7, partner max 1 µM)
[out] met

[in] For this compound, is measured combination Emax 0.9 or higher? CN(C)CCCOc1ccc(-c2ccc3ncc4c(c3c2)n(C2CCOCC2)c(=O)n4C)cn1 [AZD0156] + CCN(CCO)CCCOc1ccc2c(Nc3cc(CC(=O)Nc4cccc(F)c4)[nH]n3)ncnc2c1 [AZD2811] (first compound max 1 µM, 7x7, partner max 1 µM)
[out] not met

[in] For this compound, is measured combination Emax 0.9 or higher? Cn1cnc2c(F)c(Nc3ccc(Br)cc3Cl)c(C(=O)NOCCO)cc21 [Selumetinib] + CCN(CCO)CCCOc1ccc2c(Nc3cc(CC(=O)Nc4cccc(F)c4)[nH]n3)ncnc2c1 [AZD2811] (first compound max 10 µM, 7x7, partner max 1 µM)
[out] not met

[in] For this compound, is measured combination Emax 0.9 or higher? Cc1cc2ncnn2cc1Nc1ncc2c(n1)n(C1CCOCC1)c(=O)n2C [AZD7648] + C=CCn1c(=O)c2cnc(Nc3ccc(N4CCN(C)CC4)cc3)nc2n1-c1cccc(C(C)(C)O)n1 [AZD1775] (first compound max 10 µM, partner max 1 µM)
[out] met

[in] For this compound, is measured combination Emax 0.9 or higher? Cc1c2c(nn1C)CSCc1cc(n(C)n1)CSc1cc(c3ccccc3c1)OCCCc1c(C(=O)O)n(C)c3c-2c(Cl)ccc13 [AZD5991] + Cc1cc2ncnn2cc1Nc1ncc2c(n1)n(C1CCOCC1)c(=O)n2C [AZD7648] (first compound max 1 µM, 7x7, partner max 10 µM)
[out] met

[in] For this compound, is measured combination Emax 0.9 or higher? CCN(CCO)CCCOc1ccc2c(Nc3cc(CC(=O)Nc4cccc(F)c4)[nH]n3)ncnc2c1 [AZD2811] + C[C@@H]1COCCN1C2=NC(=NC(=C2)C3(CC3)[S@](=N)(=O)C)C4=C5C=CNC5=NC=C4 [AZD6738] (first compound max 1 µM, 7x7, partner max 10 µM)
[out] met

[in] For this compound, is measured combination Emax 0.9 or higher? Cc1cc2ncnn2cc1Nc1ncc2c(n1)n(C1CCOCC1)c(=O)n2C [AZD7648] + CN(C)CCCOc1ccc(-c2ccc3ncc4c(c3c2)n(C2CCOCC2)c(=O)n4C)cn1 [AZD0156] (first compound max 10 µM, 7x7, partner max 1 µM)
[out] not met
